Molecular target: Translocator protein (Homo sapiens)
Details: Compound concentration 10 µM; call rule not given here
Respond using exactly one of the listed classes: active, inactive

Consider the following illustrative entries.
INSERT INTO results (smiles, class_name) VALUES
  ('O=c1ccn([C@@H]2O[C@H](COP(=O)(O)OP(=O)(O)OP(=O)(O)O)[C@@H](O)[C@H]2O)c(=O)[nH]1', 'active'),
  ('NCCc1cn(S(=O)(=O)c2c(Cl)nc3sccn23)c2ccccc12', 'inactive');

Which outcome did this test record for the compound N#Cc1c(O)nc(SCc2cccc(F)c2F)nc1C1CC1 ?
inactive

Which outcome did this test record for the compound Cc1ccc(O)c([C@H](CCN(C(C)C)C(C)C)c2ccccc2)c1 ?
inactive
